# TARGET_DESC: human GPCR sphingosine 1-phosphate receptor 2 (S1PR2) (Homo sapiens)
# PROTOCOL: S1P2 antagonist assay (Ca2+ flux, S1P at EC80)
# CONDITION_SET: CHO-S1PR2 cells, highest concentration 20 μM
MEASUREMENT_KIND: EC50 (nM)

1) CCOc1nc(C(F)(F)F)cc(NC(=O)NCc2cc(C)c(-c3cn(C)nc3C(F)(F)F)nn2)c1Br: 11.5
2) CCOc1cc(NC(=O)NCc2nnc(-c3cn(C)nc3C(F)(F)F)c(C)c2C)cc(C(F)(F)F)n1: 4250
3) Cc1cc(CNC(=O)Nc2cc(Cl)nc(OCC(F)F)c2)nnc1-c1cn(C)nc1C(F)(F)F: 8.6
4) Cc1cc(CNC(=O)Nc2cc(Cl)nc(OCC(F)F)c2)nnc1N1CCC(F)(CO)C1 (stereo not shown): 452

---

# Test system: HFL-1 cells
# PROTOCOL: IL8 assay in the presence of Human Serum Albumin
# Format: cell-based
# CONDITION_SET: HFL1, S1P (5 μM) induced IL-8, HFL-1 cells, with 2% HSA, read-out: HSA IL8 EC50
Each entry below carries its reported IC50.
MEASUREMENT_KIND: IC50 (nM)

1) COCC(C)Oc1cc(NC(=O)NCc2cc(C)c(-c3cn(C)nc3C(F)(F)F)nn2)cc(C(F)(F)F)n1 (stereo not shown) [Compound 41]: 597
2) Cn1cc(-c2nnc(CNC(=O)Nc3cc(Cl)nc(OCC(F)F)c3)cc2N2CC(F)(F)C2)c(C(F)(F)F)n1 [Compound 60]: 4340
3) CCOc1cc(NC(=O)NCc2cc(C)c(-c3cn(CCOC)nc3C(F)(F)F)nn2)cc(C(F)(F)F)n1 [Compound 53]: 51.2
4) Cc1cc(CNC(=O)Nc2cc(OCC(O)CO)nc(C(F)(F)F)c2)nnc1-c1cn(C)nc1C(F)(F)F (stereo not shown) [Compound 5]: 9950
5) CN(C)Cc1cc(CNC(=O)Nc2cc(Cl)nc(OCC(F)F)c2)nnc1-c1cn(C)nc1C(F)(F)F [Compound 65]: 10000
6) Cc1cc(CNC(=O)Nc2cc(Cl)nc(OCC(F)F)c2)nnc1N1CCC(S(C)(=O)=O)C1 (stereo not shown) [Compound 91]: 2840
7) Cc1cc(CNC(=O)Nc2cc(Cl)nc(OCC(F)F)c2)nnc1N1CCOC(C(F)(F)F)C1 (stereo not shown) [Compound 89]: 1580
8) CCOc1nc(C)cc(NC(=O)NCc2cc(C)c(-c3cn(C)nc3C(F)(F)F)nn2)c1Cl [Compound 71]: 56
9) CCOc1cc(NC(=O)NC(C)c2cc(C)c(-c3cn(C)nc3C(F)(F)F)nn2)cc(Cl)n1 (stereo not shown) [Compound 3]: 478
10) CCOc1cc(NC(=O)NCc2cc(C)c(-c3cn(C)nc3C(F)(F)F)nn2)cc(Cl)n1 [Compound 2]: 25.1
11) CCOc1cc(NC(=O)NCc2nnc(-c3cn(C)nc3C(F)(F)F)c(C)c2C)cc(C(F)(F)F)n1 [Compound 66]: 29900
12) CCOc1cc(NC(=O)NCc2cc(C)c(N3CCC(F)(F)C3)nn2)cc(Cl)n1 [Compound 81]: 10000
13) CCOc1cc(NC(=O)NCc2cc(C)c(-c3cn(CC4COCCO4)nc3C(F)(F)F)nn2)cc(C(F)(F)F)n1 (stereo not shown) [Compound 55]: 179
14) CCOc1cc(NC(=O)NCc2cc(C)c(N3CC(F)(F)C3)nn2)cc(Cl)n1 [Compound 83]: 30000
15) CCOc1ncc(NC(=O)NCc2cc(C)c(-c3cn(C)nc3C(F)(F)F)nn2)cc1Cl [Compound 8]: 169
16) CCOc1cc(NC(=O)NCc2cc(C)c(-c3cnn(C)c3C)nn2)cc(C(F)(F)F)n1 [Compound 69]: 9950

---

# Tested on: HFL-1 cells
# PROTOCOL: IL8 assay in the presence of Human Serum Albumin
# Assay type: cell-based
# CONDITION_SET: HFL1, S1P (5 μM) induced IL-8, HFL-1 cells, with 2% HSA, read-out: HSA IL8 EC50
Threshold check on IC50: strictly below 200 nM is T; on or above 200 nM is F.

1) Cc1cc(CNC(=O)Nc2cc(C(F)(F)F)nc(OCCO)c2C)nnc1-c1cn(C)nc1C(F)(F)F: F
2) Cc1cc(CNC(=O)Nc2cc(OC3CCOCC3)nc(C(F)(F)F)c2)nnc1-c1cn(C)nc1C(F)(F)F: F
3) CCOc1cc(NC(=O)NCc2cc(C)c(-c3cn(C)nc3C(F)(F)F)nn2)cc(C(F)(F)F)n1: T
4) Cc1cc(CNC(=O)Nc2cc(Cl)nc(OCC(F)F)c2)nnc1N1CCC(F)(CO)C1 (stereo not shown): F
5) Cc1cc(CNC(=O)Nc2cc(OCC(F)F)nc(N3CC(F)(F)C3)c2)nnc1-c1cn(C)nc1C(F)(F)F: T
6) CCOc1cc(NC(=O)NCc2cc(C)c(-c3cn(C)nc3C(F)(F)F)nn2)cc(C)n1: T

---

# TARGET_DESC: S1PR2 (Homo sapiens, UniProt O95136)
# Sequence (O95136 whole entry): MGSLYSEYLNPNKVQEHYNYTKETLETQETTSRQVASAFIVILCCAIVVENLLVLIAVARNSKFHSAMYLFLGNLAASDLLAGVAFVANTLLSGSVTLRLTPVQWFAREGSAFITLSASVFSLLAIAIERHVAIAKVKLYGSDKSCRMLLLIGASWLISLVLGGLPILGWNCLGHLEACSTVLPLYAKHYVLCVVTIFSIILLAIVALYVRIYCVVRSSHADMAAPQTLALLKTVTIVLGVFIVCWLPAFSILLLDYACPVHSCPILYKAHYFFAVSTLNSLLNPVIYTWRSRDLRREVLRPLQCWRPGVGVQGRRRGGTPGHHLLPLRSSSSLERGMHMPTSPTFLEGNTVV
# PROTOCOL: GTP-γS binding assay ([35S]GTPγS, S1P at EC80, S1PR2 membranes)
# CONDITION_SET: membranes from stable cell line over expressing S1PR2, read-out: S1PR2 EC
pEC50: −log10 of the molar value.
MEASUREMENT_KIND: pEC50

1) CCOc1cc(NC(=O)NCc2cc(C)c(N3CCCc4nn(C)cc43)nn2)cc(C(F)(F)F)n1 [Compound 96]: 6.52
2) CCOc1cc(NC(=O)NCc2cc(C)c(-c3cn(CC(C)O)nc3C(F)(F)F)nn2)cc(C(F)(F)F)n1 (stereo not shown) [Compound 56]: 6.89
3) Cc1cc(CNC(=O)Nc2cc(Cl)nc(OCC(F)F)c2)nnc1-c1cn(C)nc1C(F)(F)F [Compound 17]: 7.44
4) Cc1cc(CNC(=O)Nc2cc(N3CC(F)(F)C3)nc(C(F)(F)F)c2)nnc1-c1cn(C)nc1C(F)(F)F [Compound 47]: 7.46
5) Cc1cc(CNC(=O)Nc2ccnc(Cl)c2)nnc1-c1cn(C)nc1C(F)(F)F [Compound 44]: 5.38
6) CCOc1cc(NC(=O)NCc2cc(C)c(-c3cn(CCOC)nc3C(F)(F)F)nn2)cc(C(F)(F)F)n1 [Compound 53]: 7.28
7) COCCOc1cc(NC(=O)NCc2cc(C)c(-c3cn(C)nc3C(F)(F)F)nn2)cc(C(F)(F)F)n1 [Compound 25]: 5.69

---

Parameter EC50: see the listing below.
# TARGET_DESC: human GPCR sphingosine 1-phosphate receptor 2 (S1PR2) (Homo sapiens, UniProt O95136)
# PROTOCOL: S1P2 antagonist assay (Ca2+ flux, S1P at EC80)
# CONDITION_SET: CHO-S1PR2 cells, highest concentration 20 μM
MEASUREMENT_KIND: EC50 (nM)

1) Cc1cc(CNC(=O)Nc2cnc(OCC(F)F)c(Cl)c2)nnc1N1CC(C)OC(C)C1 (stereo not shown): 6510
2) COCCOc1cc(NC(=O)NCc2cc(C)c(-c3cn(C)nc3C(F)(F)F)nn2)cc(C(F)(F)F)n1: 792
3) CCOc1cc(NC(=O)NCc2cc(C)c(-c3cn(COC)nc3C(F)(F)F)nn2)cc(Cl)n1: 9.2
4) CCOc1nc(C)cc(NC(=O)NCc2cc(C)c(-c3cn(C)nc3C(F)(F)F)nn2)c1Cl: 9
5) Cc1cc(CNC(=O)Nc2cc(Cl)nc(OCC(F)F)c2C)nnc1-c1cn(C)nc1C(F)(F)F: 8
6) CCOc1cc(NC(=O)NCc2cc(C)c(-c3cn(CC4COCCO4)nc3C(F)(F)F)nn2)cc(C(F)(F)F)n1 (stereo not shown): 16.9
7) CCOc1nc(C#N)cc(NC(=O)NCc2cc(C)c(-c3cn(C)nc3C(F)(F)F)nn2)c1C1CC1: 69.6

---

# TARGET_DESC: human GPCR sphingosine 1-phosphate receptor 2 (S1PR2) (Homo sapiens, UniProt O95136)
# PROTOCOL: S1P2 antagonist assay (Ca2+ flux, S1P at EC80)
# CONDITION_SET: CHO-S1PR2 cells, highest concentration 20 μM
MEASUREMENT_KIND: EC50 (nM)

1) Cc1cc(CNC(=O)Nc2cc(OCCO)nc(C(F)(F)F)c2)nnc1-c1cn(C)nc1C(F)(F)F: 348
2) CCOc1nc(C)cc(NC(=O)NCc2cc(C)c(N3C[C@@H](C)O[C@@H](C)C3)nn2)c1Cl: 27
3) CCOc1nc(C(F)(F)F)cc(NC(=O)NC(C)c2cc(C)c(-c3cn(C)nc3C(F)(F)F)nn2)c1C (stereo not shown): 19.7
4) Cc1cn(-c2nnc(CNC(=O)Nc3cc(Cl)nc(OCC(F)F)c3)cc2C)c(C)n1: 904
5) CCOc1cc(NC(=O)NCc2cc(C)c(-c3cn(C)nc3C(F)(F)F)nn2)cc(C#N)n1: 10.9
6) Cc1cc(CNC(=O)Nc2cc(OCC(F)F)nc(N3CC(F)(F)C3)c2)nnc1-c1cn(C)nc1C(F)(F)F: 27.1
7) CCOc1cc(NC(=O)NCc2cc(C)c(N3CCCc4nn(C)cc43)nn2)cc(C(F)(F)F)n1: 33
8) Cc1cc(CNC(=O)Nc2cc(OC3CCOC3)nc(C(F)(F)F)c2)nnc1-c1cn(C)nc1C(F)(F)F (stereo not shown): 110
9) Cc1cc(CNC(=O)Nc2cnc(Cl)c(OCC(F)F)c2)nnc1-c1cn(C)nc1C(F)(F)F: 10.6
10) Cc1cc(CNC(=O)Nc2cnc(OCC(F)F)c(Cl)c2)nnc1-c1cn(C)nc1C(F)(F)F: 23.7

Taken from patent US20190388421A1.
